// provenance: ChEMBL document CHEMBL1240464

test system: Pseudomonas aeruginosa; experiment: Antibacterial activity against Pseudomonas aeruginosa after 8 to 12 hrs by colorimetric microdilution broth technique; format: functional

{"compound": "CN(C)c1ccc(/C=C/c2ccc3ccccc3[n+]2C)cc1.Cc1ccc(S(=O)(=O)[O-])cc1", "target.system": "Pseudomonas aeruginosa", "MIC (µg/mL)": 300}
{"compound": "CN(C)c1ccc(/C=C/c2cccc[n+]2C)cc1.Cc1ccc(S(=O)(=O)[O-])cc1", "target.system": "Pseudomonas aeruginosa", "MIC (µg/mL)": 150}
{"compound": "CN(C)c1ccc(/C=C/c2ccc3ccccc3[n+]2C)cc1.Nc1ccc(S(=O)(=O)[O-])cc1", "target.system": "Pseudomonas aeruginosa", "MIC (µg/mL)": 150}
{"compound": "CN(C)c1ccc(/C=C/c2ccc3ccccc3[n+]2C)cc1.[I-]", "target.system": "Pseudomonas aeruginosa", "MIC (µg/mL)": 300}
{"compound": "CN(C)c1ccc(C=Cc2cccc[n+]2C)cc1.[I-]", "target.system": "Pseudomonas aeruginosa", "MIC (µg/mL)": 300}
{"compound": "CN(C)c1ccc(/C=C/c2cccc[n+]2C)cc1.O=S(=O)([O-])c1ccc(Cl)cc1", "target.system": "Pseudomonas aeruginosa", "MIC (µg/mL)": 300}
{"compound": "CN(C)c1ccc(/C=C/c2cccc[n+]2C)cc1.COc1ccc(S(=O)(=O)[O-])cc1", "target.system": "Pseudomonas aeruginosa", "MIC (µg/mL)": 150}
{"compound": "CN(C)c1ccc(/C=C/c2ccc3ccccc3[n+]2C)cc1.O=S(=O)([O-])c1ccc(Br)cc1", "target.system": "Pseudomonas aeruginosa", "MIC (µg/mL)": 300}
{"compound": "CN[C@H](CC(C)C)C(=O)N[C@H]1C(=O)N[C@@H](CC(N)=O)C(=O)N[C@H]2C(=O)N[C@H]3C(=O)N[C@H](C(=O)N[C@H](C(=O)O)c4cc(O)cc(O)c4-c4cc3ccc4O)[C@H](O)c3ccc(c(Cl)c3)Oc3cc2cc(c3O[C@@H]2O[C@H](CO)[C@@H](O)[C@H](O)[C@H]2O[C@H]2C[C@](C)(N)[C@H](O)[C@H](C)O2)Oc2ccc(cc2Cl)[C@H]1O [VANCOMYCIN]", "target.system": "Pseudomonas aeruginosa", "MIC (µg/mL)": 2.34}
{"compound": "CN(C)c1ccc(/C=C/c2ccc3ccccc3[n+]2C)cc1.O=S(=O)([O-])c1ccc(Cl)cc1", "target.system": "Pseudomonas aeruginosa", "MIC (µg/mL)": 300}
{"compound": "CCOc1ccc(/C=C/c2cccc[n+]2C)cc1.Cc1ccc(S(=O)(=O)[O-])cc1", "target.system": "Pseudomonas aeruginosa", "MIC (µg/mL)": 37.5}
